Below, each entry is listed alongside its reported Δ log (Treated-Control at 4 h).
- Test system: K. pneumoniae FADDI-KP032
- protocol-details: In vivo efficacy in mouse blood infection model (neutropenic Swiss mice)
- condition-context: compound, free base 4 mg/kg intravenously 2 h after inoculation, blood at 4 h
Positions of bridges follow the written chain, without caps; N, C: chain ends. Non-standard residues stand in square brackets, D forms with d. Residues, ends and D or L forms follow the SMILES beside them. *: point of attachment. Benzoyl(3-CF3) = O=C(c1cccc(C(F)(F)F)c1)*; Heptanoyl(6-Me) = CC(C)CCCCC(=O)*; Nonanoyl = CCCCCCCCC(=O)*; Octanoyl = CCCCCCCC(=O)*; Dab = NCC[C@H](N)C(=O)O; Abu = CC[C@H](N)C(=O)O; Dap = NC[C@H](N)C(=O)O
Dear colleague, please return just the value in log10 CFU/mL, with no unit written.

molecule	Δ log (Treated-Control at 4 h) [log10 CFU/mL]
CC[C@@H]1NC(=O)[C@@H](CC(C)C)NC(=O)[C@H](CCN)NC(=O)[C@@H](NC(=O)[C@H](CN)NC(=O)[C@@H](NC(=O)[C@H](CCN)NC(=O)c2cccc(C(F)(F)F)c2)[C@@H](C)O)CCNC(=O)[C@H]([C@@H](C)O)NC(=O)[C@H](CCN)NC(=O)[C@H](CCN)NC1=O [Compound 106] ({Benzoyl(3-CF3)}-[Dab]T[Dap][Dab][Dab][dL][Abu][Dab][Dab]T; lactam 4-C)	−2.77

Please state recorded Δ log (Treated-Control at 4 h) (tested on K. pneumoniae FADDI-KP032) of CC(C)CCCCC(=O)N[C@@H](CCN)C(=O)N[C@H](C(=O)N[C@H](CO)C(=O)N[C@H]1CCNC(=O)[C@H]([C@@H](C)O)NC(=O)[C@H](CCN)NC(=O)[C@H](CCN)NC(=O)[C@H]([C@@H](C)O)NC(=O)[C@@H](CC(C)C)NC(=O)[C@H](CCN)NC1=O)[C@@H](C)O [Compound 151, polymyxin D2] ({Heptanoyl(6-Me)}-[Dab]T[dS][Dab][Dab][dL]T[Dab][Dab]T; lactam 4-C)
−4.71

Please state recorded Δ log (Treated-Control at 4 h) (tested on K. pneumoniae FADDI-KP032) of CC(C)CCCCC(=O)N[C@@H](CCN)C(=O)N[C@H](C(=O)N[C@@H](CCN)C(=O)N[C@H]1CCNC(=O)[C@H]([C@@H](C)O)NC(=O)[C@H](CCN)NC(=O)[C@H](CCN)NC(=O)[C@H]([C@@H](C)O)NC(=O)[C@@H](CC(C)C)NC(=O)[C@H](CCN)NC1=O)[C@@H](C)O [Compound 153, polymyxin M2] ({Heptanoyl(6-Me)}-[Dab]T[Dab][Dab][Dab][dL]T[Dab][Dab]T; lactam 4-C)
−3.59

Please state recorded Δ log (Treated-Control at 4 h) (tested on K. pneumoniae FADDI-KP032) of CCCCCCCCC(=O)N[C@@H](CCN)C(=O)N[C@H](C(=O)N[C@@H](CN)C(=O)N[C@H]1CCNC(=O)[C@H]([C@@H](C)O)NC(=O)[C@H](CCN)NC(=O)[C@H](CCN)NC(=O)[C@H]([C@@H](C)O)NC(=O)[C@@H](CC(C)C)NC(=O)[C@H](CCN)NC1=O)[C@@H](C)O [Compound 58] (Nonanoyl-[Dab]T[Dap][Dab][Dab][dL]T[Dab][Dab]T; lactam 4-C)
−3.21

Please state recorded Δ log (Treated-Control at 4 h) (tested on K. pneumoniae FADDI-KP032) of CCCCCCCC(=O)N[C@@H](CCN)C(=O)N[C@H](C(=O)N[C@@H](CO)C(=O)N[C@H]1CCNC(=O)[C@H]([C@@H](C)O)NC(=O)[C@H](CCN)NC(=O)[C@H](CCN)NC(=O)[C@H]([C@@H](C)O)NC(=O)[C@@H](CC(C)C)NC(=O)[C@H](CCN)NC1=O)[C@@H](C)O [Compound 4] (Octanoyl-[Dab]TS[Dab][Dab][dL]T[Dab][Dab]T; lactam 4-C)
−1.84
